Where do the numbers come from? From paper PMC2756588.

Target: T1, Sla1-3, P32790
T1 sequence (P32790 344-424, looked up): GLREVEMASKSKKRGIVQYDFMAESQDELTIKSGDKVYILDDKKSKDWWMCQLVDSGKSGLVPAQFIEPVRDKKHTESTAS
Assay: SPOT array
Details: median of control spots 5475
quantity: SPOT intensity
API doc: respond with a numeric literal and nothing else, no unit.

Bench note: what SPOT intensity did GKLKHIPRRPYEIER show?
16

// returns reported SPOT intensity for input RRGPAPPPPPRASRP
14

Bench note: what SPOT intensity did KKEKKPPKIPKKVYT show?
12

Return reported SPOT intensity; argument: TSFKGRPKPPKTLKH
2
